Ref: patent US20250074980A1

Biological target: T1, His-tagged CEACAM1 (human, UniProt P13688 35-428)
T1 construct: 45 kDa SPR analyte; also called CEACAM1-HIS; CEACAM1 analyte
T1 sequence: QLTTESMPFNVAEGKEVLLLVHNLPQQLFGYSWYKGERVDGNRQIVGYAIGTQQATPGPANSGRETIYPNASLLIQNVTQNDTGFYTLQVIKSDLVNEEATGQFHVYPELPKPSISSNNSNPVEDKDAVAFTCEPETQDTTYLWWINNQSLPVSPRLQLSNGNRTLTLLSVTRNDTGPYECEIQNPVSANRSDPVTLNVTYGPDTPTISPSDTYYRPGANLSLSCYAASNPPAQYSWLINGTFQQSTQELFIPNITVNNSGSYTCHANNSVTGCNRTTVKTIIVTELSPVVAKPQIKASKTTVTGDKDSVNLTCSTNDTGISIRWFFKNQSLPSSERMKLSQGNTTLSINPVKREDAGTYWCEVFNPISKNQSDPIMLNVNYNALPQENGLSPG
Test: SPR single-cycle, supernatant IgG captured

| BINDER | relative KD to parent |
| --- | --- |
| 9B3_9E5_8H3/Vκ8 S29A (antibody, IgG4, V domains shown, IgG4 (S241P), kappa) VH: EVQLLESGGGLVQPGGSLRLSCAASGFTFNAHAISWVRQAPGKGLEWVATISSGGTYTYYPDSVKGRFTISRDNSKNTLYLQMNSLKAEDTAMYYCARHGFDYFPYWFAHWGQGTLVTVSS VL: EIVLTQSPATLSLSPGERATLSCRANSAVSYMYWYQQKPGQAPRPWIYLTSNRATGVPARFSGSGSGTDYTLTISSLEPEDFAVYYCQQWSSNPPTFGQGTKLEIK | 2.4 |
| 8H3_9C2 (CDR1)/CP08F05 (antibody, IgG4, V domains shown, IgG4 (S241P), kappa) VH: EVQLLESGGGLVQPGGSLRLSCAASEFTFSDHAMSWVRQAPGKGLEWVATISSGGTYTYYPDSVKGRFTISRDNSKNTLYLQMNSLKAEDTAMYYCARHDFDYFPYWFAHWGQGTLVTVSS VL: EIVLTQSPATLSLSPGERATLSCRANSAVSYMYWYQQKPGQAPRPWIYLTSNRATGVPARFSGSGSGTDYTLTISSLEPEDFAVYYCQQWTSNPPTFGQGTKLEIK | 2.3 |
| 8H3_9C2 (CDR1)/Vκ8 S29A (antibody, IgG4, V domains shown, IgG4 (S241P), kappa) VH: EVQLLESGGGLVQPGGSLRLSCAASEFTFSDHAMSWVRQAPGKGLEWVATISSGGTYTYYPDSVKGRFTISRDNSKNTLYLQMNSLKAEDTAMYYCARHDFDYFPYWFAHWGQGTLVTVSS VL: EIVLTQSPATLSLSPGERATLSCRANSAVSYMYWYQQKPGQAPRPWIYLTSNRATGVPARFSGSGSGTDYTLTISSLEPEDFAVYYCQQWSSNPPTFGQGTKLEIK | 2.7 |
| 8H3_9C2/CP08E05 (antibody, IgG4, V domains shown, IgG4 (S241P), kappa) VH: EVQLLESGGGLVQPGGSLRLSCAASEFTFSDHAMSWVRQAPGKGLEWVATISSGGTYTYYPDSVKGRFTISRDNSKNTLYLQMNSLKAEDTAMYYCARHGFDYFPYWFAHWGQGTLVTVSS VL: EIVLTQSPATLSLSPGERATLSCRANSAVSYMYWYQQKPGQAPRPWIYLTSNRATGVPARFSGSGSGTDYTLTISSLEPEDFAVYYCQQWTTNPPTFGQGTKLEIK | 5.3 |
| 8H3_9B3/CP08E05 (antibody, IgG4, V domains shown, IgG4 (S241P), kappa) VH: EVQLLESGGGLVQPGGSLRLSCAASGFTFNAHAISWVRQAPGKGLEWVATISSGGTYTYYPDSVKGRFTISRDNSKNTLYLQMNSLKAEDTAMYYCARHDFDYFPYWFAHWGQGTLVTVSS VL: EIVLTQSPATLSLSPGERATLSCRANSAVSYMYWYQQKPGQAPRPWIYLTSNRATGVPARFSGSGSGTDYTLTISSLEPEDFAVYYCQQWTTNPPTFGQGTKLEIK | 7.3 |
| 8H3_9B3/Vκ8 S29A (antibody, IgG4, V domains shown, IgG4 (S241P), kappa) VH: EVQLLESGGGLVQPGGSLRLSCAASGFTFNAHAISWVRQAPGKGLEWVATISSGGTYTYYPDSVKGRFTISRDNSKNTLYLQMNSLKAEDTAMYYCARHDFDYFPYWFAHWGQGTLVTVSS VL: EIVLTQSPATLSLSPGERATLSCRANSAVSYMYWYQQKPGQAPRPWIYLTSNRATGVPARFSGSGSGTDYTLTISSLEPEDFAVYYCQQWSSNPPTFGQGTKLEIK | 7.2 |
| 8H3_9C2/Vκ8 S29A (antibody, IgG4, V domains shown, IgG4 (S241P), kappa) VH: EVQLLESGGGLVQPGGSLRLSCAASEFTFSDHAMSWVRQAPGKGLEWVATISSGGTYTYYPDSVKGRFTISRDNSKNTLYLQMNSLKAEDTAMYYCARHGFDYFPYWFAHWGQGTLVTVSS VL: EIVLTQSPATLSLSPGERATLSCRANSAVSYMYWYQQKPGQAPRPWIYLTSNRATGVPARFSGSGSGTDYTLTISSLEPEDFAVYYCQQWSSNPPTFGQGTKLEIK | 5.1 |
| 8H3_9E5/Vκ8 S29A (antibody, IgG4, V domains shown, IgG4 (S241P), kappa) VH: EVQLLESGGGLVQPGGSLRLSCAASGFIFSSHGMSWVRQAPGKGLEWVATISSGGTYTYYPDSVKGRFTISRDNSKNTLYLQMNSLKAEDTAMYYCARHGFDYFPYWFAHWGQGTLVTVSS VL: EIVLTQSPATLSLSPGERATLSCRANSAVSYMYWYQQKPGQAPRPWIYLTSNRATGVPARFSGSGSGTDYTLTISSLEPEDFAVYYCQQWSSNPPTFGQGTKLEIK | 1.9 |
| 8H3_9B3/CP08F05 (antibody, IgG4, V domains shown, IgG4 (S241P), kappa) VH: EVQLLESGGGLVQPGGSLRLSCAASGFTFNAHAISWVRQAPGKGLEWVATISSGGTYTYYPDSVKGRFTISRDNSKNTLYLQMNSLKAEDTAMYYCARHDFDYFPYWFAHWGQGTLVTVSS VL: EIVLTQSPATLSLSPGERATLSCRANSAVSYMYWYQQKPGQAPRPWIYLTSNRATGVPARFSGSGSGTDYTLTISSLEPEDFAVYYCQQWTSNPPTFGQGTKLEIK | 8 |
| VH1/Vκ8 S29A (antibody, IgG4, V domains shown, IgG4 (S241P), kappa; also called Parent; Parent (VH1/Vκ8 S29A)) VH: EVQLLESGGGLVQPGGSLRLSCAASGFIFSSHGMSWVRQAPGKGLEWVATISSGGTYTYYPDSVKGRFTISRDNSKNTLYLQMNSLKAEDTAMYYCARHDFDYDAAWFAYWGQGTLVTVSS VL: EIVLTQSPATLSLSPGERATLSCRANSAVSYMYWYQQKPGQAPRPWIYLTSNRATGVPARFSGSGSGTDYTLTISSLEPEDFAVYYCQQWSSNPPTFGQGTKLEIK | 1 |
